Cited source: patent US8637510B2

List of EC50 values.
- system name: human alpha 7-wt nAChR (Homo sapiens, UniProt P36544)
- Construct: expressed in transfected cells
- Sequence (P36544 23-502): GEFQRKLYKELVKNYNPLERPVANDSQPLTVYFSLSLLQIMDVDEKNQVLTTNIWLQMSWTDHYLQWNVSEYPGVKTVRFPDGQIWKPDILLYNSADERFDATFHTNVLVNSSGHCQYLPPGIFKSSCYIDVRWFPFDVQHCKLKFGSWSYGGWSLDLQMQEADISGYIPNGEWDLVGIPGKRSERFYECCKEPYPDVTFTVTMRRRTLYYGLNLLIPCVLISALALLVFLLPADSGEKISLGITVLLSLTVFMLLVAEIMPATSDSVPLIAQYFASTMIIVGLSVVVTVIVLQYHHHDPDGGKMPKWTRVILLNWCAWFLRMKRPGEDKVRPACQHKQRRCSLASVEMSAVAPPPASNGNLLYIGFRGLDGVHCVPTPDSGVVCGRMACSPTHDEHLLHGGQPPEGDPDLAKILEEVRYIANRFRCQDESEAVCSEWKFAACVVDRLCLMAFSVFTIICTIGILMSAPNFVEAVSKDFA
- procedure details: Ca2+ flux imaging (FDSS) (Protocol B)
- Type: cell-based
- assay setup: potentiation of 100 μM choline; compounds 0.01 μM to 30 μM; read-out: a7-PAM-G_[33]_pEC50 pEC50 (converted)
measured attribute: EC50 (µM)

>  <molecule>
Cc1cc(-c2sc(N3C[C@@H](C)O[C@@H](C)C3)nc2CNC(=O)CCC2CC2)cc(C)n1

>  <system name>
human alpha 7-wt nAChR (Homo sapiens, UniProt P36544)

>  <readout value>
0.0661

$$$$
>  <molecule>
Cc1cc(-c2sc(N3C[C@@H](C)O[C@@H](C)C3)nc2CNC(=O)c2snnc2C)cc(C)n1

>  <system name>
human alpha 7-wt nAChR (Homo sapiens, UniProt P36544)

>  <readout value>
0.0759

$$$$
>  <molecule>
Cc1cc(-c2sc(N3C[C@@H](C)O[C@@H](C)C3)nc2CNC(=O)CCC(C)C)cc(C)n1

>  <system name>
human alpha 7-wt nAChR (Homo sapiens, UniProt P36544)

>  <readout value>
0.0603

$$$$
>  <molecule>
Cc1cc(-c2sc(N3C[C@@H](C)O[C@@H](C)C3)nc2CNC(=O)c2ccc(F)c(F)c2F)cc(C)n1

>  <system name>
human alpha 7-wt nAChR (Homo sapiens, UniProt P36544)

>  <readout value>
0.339

$$$$
>  <molecule>
COc1cc(-c2sc(N3C[C@@H](C)O[C@@H](C)C3)nc2CNC(=O)c2cc(C)on2)cc(C)n1

>  <system name>
human alpha 7-wt nAChR (Homo sapiens, UniProt P36544)

>  <readout value>
0.324

$$$$
>  <molecule>
Cc1cc(-c2sc(N3CCOC(C(F)(F)F)C3)nc2CNC(=O)c2cc(C)on2)cc(C)n1 (stereo not shown)

>  <system name>
human alpha 7-wt nAChR (Homo sapiens, UniProt P36544)

>  <readout value>
0.186

$$$$
>  <molecule>
Cc1cc(-c2sc(N3C[C@@H](C)O[C@@H](C)C3)nc2CNC(=O)c2onc(C)c2C)cc(C)n1

>  <system name>
human alpha 7-wt nAChR (Homo sapiens, UniProt P36544)

>  <readout value>
1.62

$$$$
>  <molecule>
Cc1cc(-c2sc(N3C[C@@H](C)O[C@@H](C)C3)nc2CNC(=O)c2ccc(F)c(F)c2C)cc(C)n1

>  <system name>
human alpha 7-wt nAChR (Homo sapiens, UniProt P36544)

>  <readout value>
0.0055

$$$$
>  <molecule>
Cc1cc(-c2sc(N3C[C@@H](C)O[C@@H](C)C3)nc2CNC(=O)C(C)C2CC2)cc(C)n1 (stereo partly shown)

>  <system name>
human alpha 7-wt nAChR (Homo sapiens, UniProt P36544)

>  <readout value>
0.0977

$$$$
>  <molecule>
CCCC(=O)NCc1nc(N2CCOCC2)sc1-c1cc(C)nc(C)c1

>  <system name>
human alpha 7-wt nAChR (Homo sapiens, UniProt P36544)

>  <readout value>
5.37

$$$$
>  <molecule>
Cc1cc(-c2sc(N3C[C@@H](C)O[C@@H](C)C3)nc2CNC(=O)Cc2c(C)noc2C)cc(C)n1

>  <system name>
human alpha 7-wt nAChR (Homo sapiens, UniProt P36544)

>  <readout value>
0.525

$$$$
>  <molecule>
Cc1cc(-c2sc(N3CCOC(C)C3)nc2CNC(=O)C(C)C)cc(C)n1 (single isomer, unassigned) [Compound 76]

>  <system name>
human alpha 7-wt nAChR (Homo sapiens, UniProt P36544)

>  <readout value>
0.55

$$$$
>  <molecule>
Cc1cc(-c2sc(N3C[C@@H](C)O[C@@H](C)C3)nc2CNC(=O)c2ccc(F)cc2F)cc(C)n1

>  <system name>
human alpha 7-wt nAChR (Homo sapiens, UniProt P36544)

>  <readout value>
0.288

$$$$
>  <molecule>
COc1nc(C)c(C(=O)NCc2nc(N3C[C@@H](C)O[C@@H](C)C3)sc2-c2cc(C)nc(C)c2)s1

>  <system name>
human alpha 7-wt nAChR (Homo sapiens, UniProt P36544)

>  <readout value>
1.58

$$$$
>  <molecule>
Cc1cc(-c2sc(N3C[C@@H](C)O[C@@H](C)C3)nc2CNC(=O)c2oc(C)nc2C)cc(C)n1

>  <system name>
human alpha 7-wt nAChR (Homo sapiens, UniProt P36544)

>  <readout value>
9.77

$$$$
>  <molecule>
Cc1cc(-c2sc(N3C[C@@H](C)O[C@@H](C)C3)nc2CNC(=O)c2ccc(OC(F)(F)F)cc2)cc(C)n1

>  <system name>
human alpha 7-wt nAChR (Homo sapiens, UniProt P36544)

>  <readout value>
0.813

$$$$
>  <molecule>
Cc1cc(-c2sc(N3CCOCC3)nc2CNC(=O)C2CCC2)cc(C)n1

>  <system name>
human alpha 7-wt nAChR (Homo sapiens, UniProt P36544)

>  <readout value>
3.24

$$$$
>  <molecule>
Cc1cc(-c2sc(N3C[C@@H](C)O[C@@H](C)C3)nc2CNC(=O)c2cccc(C#N)c2)cc(C)n1

>  <system name>
human alpha 7-wt nAChR (Homo sapiens, UniProt P36544)

>  <readout value>
0.55

$$$$
>  <molecule>
Cc1cc(-c2sc(N3C[C@@H](C)O[C@@H](C)C3)nc2CNC(=O)c2oc(C)cc2C)cc(C)n1

>  <system name>
human alpha 7-wt nAChR (Homo sapiens, UniProt P36544)

>  <readout value>
0.776

$$$$
>  <molecule>
Cc1ccc(-c2sc(N3C[C@@H](C)O[C@@H](C)C3)nc2CNC(=O)c2ccc(F)cc2)cn1

>  <system name>
human alpha 7-wt nAChR (Homo sapiens, UniProt P36544)

>  <readout value>
1.66

$$$$
>  <molecule>
Cc1cc(C(=O)NCc2nc(N3C[C@@H](C)O[C@@H](C)C3)sc2-c2ccnc(C(F)(F)F)c2)no1

>  <system name>
human alpha 7-wt nAChR (Homo sapiens, UniProt P36544)

>  <readout value>
0.219

$$$$
>  <molecule>
COc1cccc(C(=O)NCc2nc(N3C[C@@H](C)O[C@@H](C)C3)sc2-c2cc(C)nc(C)c2)n1

>  <system name>
human alpha 7-wt nAChR (Homo sapiens, UniProt P36544)

>  <readout value>
1.2

$$$$

----------
- system name: human alpha 7-wt nAChR-expressing GH4C1 cells (Homo sapiens, UniProt P36544)
- Construct: expressed in transfected cells
- Sequence (P36544 23-502): as above
- procedure details: Patch-clamp current recording (whole-cell voltage-clamp, PAM type classification)
- Type: cell-based
- Set-up: key: Type 0 compounds minimally change the effect size of the current elicited by 1 mM choline.; Type 1 compounds enhance the effect size of the current elicited by 1 mM choline but minimally alter the kinetics of the receptor.; Type 2 compounds enhance the effect size of the current elicited by 1 mM choline while reducing the rate and/or the extent of desensitization.; Type 3 compounds enhance the effect size of the current elicited by 1 mM choline. When tested at higher concentrations up to 10 μM they completely inhibit desensitization; Type 4 compounds allow for an initial desensitization of the receptor followed by a re-opening of the receptor during agonist application
- assay setup: 1 mM choline
measured attribute: PAM_Type PAM type

>  <molecule>
Cc1cc(-c2sc(N3CCOC(C(F)(F)F)C3)nc2CNC(=O)CC2CC2)cc(C)n1 (centres unmarked)

>  <readout value>
2

$$$$
>  <molecule>
Cc1cc(-c2sc(N3C[C@@H](C)O[C@@H](C)C3)nc2CNC(=O)C(C)C2CC2)cc(C)n1 (some centres unmarked)

>  <readout value>
2

$$$$
>  <molecule>
COc1cc(-c2sc(N3C[C@@H](C)O[C@@H](C)C3)nc2CNC(=O)c2cc(C)on2)cc(C)n1

>  <readout value>
1

$$$$
>  <molecule>
Cc1cc(-c2sc(N3CC4CCC(C3)O4)nc2CNC(=O)c2ccc(F)cc2C)cc(C)n1

>  <readout value>
2

$$$$
>  <molecule>
Cc1cc(-c2sc(N3CCOC(C(F)(F)F)C3)nc2CNC(=O)C(C)C)cc(C)n1 (centres unmarked)

>  <readout value>
3

$$$$
>  <molecule>
Cc1cc(-c2sc(N3C[C@@H](C)O[C@@H](C)C3)nc2CNC(=O)c2cccc(C#N)c2)cc(C)n1

>  <readout value>
2

$$$$
>  <molecule>
Cc1cc(-c2sc(N3C[C@@H](C)O[C@@H](C)C3)nc2CNC(=O)c2ccc(F)cc2F)cc(C)n1

>  <readout value>
2

$$$$
>  <molecule>
Cc1cc(-c2sc(N3C[C@@H](C)O[C@@H](C)C3)nc2CNC(=O)COCC(F)(F)F)cc(C)n1

>  <readout value>
1

$$$$
>  <molecule>
Cc1cc(-c2sc(N3C[C@@H](C)O[C@@H](C)C3)nc2CNC(=O)c2cc(F)cc(F)c2)cc(C)n1

>  <readout value>
2

$$$$
>  <molecule>
Cc1cc(-c2sc(N3CCOC(C)(C)C3)nc2CNC(=O)CC2CC2)cc(C)n1

>  <readout value>
0

$$$$
>  <molecule>
Cc1cc(-c2sc(N3C[C@@H](C)O[C@@H](C)C3)nc2CNC(=O)c2ccccc2Cl)ccn1

>  <readout value>
2

$$$$
>  <molecule>
Cc1cc(-c2sc(N3C[C@@H](C)O[C@@H](C)C3)nc2CNC(=O)c2nc(C)oc2C)cc(C)n1

>  <readout value>
0

$$$$
>  <molecule>
CC(C)C(=O)NCc1nc(N2C[C@@H](C)O[C@@H](C)C2)sc1-c1ccnc(C(F)(F)F)c1

>  <readout value>
1

$$$$
>  <molecule>
Cc1cc(-c2sc(N3C[C@@H](C)O[C@@H](C)C3)nc2CNC(=O)c2ccc(F)cc2C)cc(C)n1

>  <readout value>
2

$$$$
